Provide the recorded pIC50 for the entries that follow.
- test_target: SARS-CoV-2 (WIV02 isolate) prefusion stabilized spike trimer protein (UniProt P0DTC2 14-1213)
- assay_name: ELISA
Give bare numbers, as −log10 of the molar value.

binder | pIC50
2-H7-A (antibody, V domains shown) VH: QAYLQQSGAELVRPGASVKMSCKASGYTFTGYTMHWVKQTPRQGLEWIGAIYPENGDTSYNQKFKGKATLTVDKSSSTAYMQLSSLTSEDSAVYFCARDGYDVLYGMDYWGQGTSVTVSS VL: DIVLTQSPASLAVSLGQRATISCRASKSVSTSGYSYMHWYQQKPGQPPKLLIYLASNLESGVPARFSGSGSGTDFTLNIHPVEEEDAATYYCQHSRELPWTFGGGTKLDIK | 8.14
8-H5-A (antibody, V domains shown) VH: QVTLKESGPGILQSSQTLSLTCSLSGFSLSTSGMGVSWVRQPSGKGLEWLAHIYWDDDKRYTPSLKSRLTISTDSSRKQVFLKITSVDTADTATYYCARRDLHDYDGWFAYWGQGTLVTVSA VL: DIVMTQSQKFMSTAVGDRVSVTCKASQNVGTNVAWYQQKPGQSPKALIYSASFRYSGVPDRFSGSGSGTDFTLTISNVQSEDLAEYFCQQYNSYPLTFGSGTKLEIK | 7.89

// next item, pIC50 requested
Prompt: Assign pIC50 to the following record: 4-N22-A (antibody, V domains shown) VH: QVQLQQPGTELVKPGASVKLSCKASGYTFTNYWMYWVKQRPGQGLDWIGNINPSNGGTNYNEKFKSKATLTVDKSSSTAYMQLSSLTSEDSAVYYCARETGNYWGQGTTLTVSS VL: DILMTQSPSSMSVSLGDTVSISCHASQGISSNIGWLQQKPGKSFKGLIYHGTNLEDGVPSRFSGSGSGADYSLTISSLESEDFADYYCVQYAQFPYTFGGGTKLEIK
Completion: 8.31
